# STUDY_TARGET: T1, NPNA8 peptide (Plasmodium falciparum (isolate 3D7)., not fully specified)
# T1 construct: source: synthetic peptide (InnoPep Inc)
# T1 chain: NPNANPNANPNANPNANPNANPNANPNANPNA
# RUN_DESCRIPTION: BLI
# TEST_CONDITIONS: both partners purified
TEST_READOUT: kon (M⁻¹ s⁻¹)
Numeric answer only, unit M⁻¹ s⁻¹ assumed.

Some solved cases for reference:
239 Fab (Fab, V domains shown, also called mAb 239; source: ExpiCHO cells, purified (mAb Select PrismA or Capture Select, SEC)) VH: QVQLVESGGGVVQPGRSLRLSCAASRLTFRNFGMHWVRQTPGKGLEWVAVIWHDGSNKFYADSVEGRFTISRDNSKNTLYLQMNSLRDEDTAIYYCAKDWGGASDRVFDYWGRGTLVIVSS VL: DIQMTQSPSTLSASVGDRVTITCRASQSVSTSLAWYQQKPGKAPNLLIYQASTLYRGVPSRFSGSGSGTEFTLTIGSLQPDDFATYYCQHYNSYSRITFGQGTRLEIK : 83000
239R Fab (Fab, V domains shown, also called germline-reverted 239; source: ExpiCHO cells, purified (mAb Select PrismA or Capture Select, SEC)) VH: QVQLVESGGGVVQPGRSLRLSCAASRLTFSSYGMHWVRQTPGKGLEWVAVIWHDGSNKFYADSVKGRFTISRDNSKNTLYLQMNSLRDEDTAIYYCAKDWGGASDRVFDYWGRGTLVIVSS VL: DIQMTQSPSTLSASVGDRVTITCRASQSVSTSLAWYQQKPGKAPNLLIYQASTLYTGVPSRFSGSGSGTEFTLTIGSLQPDDFATYYCQHYNSYSRITFGQGTRLEIK : 120000
334 Fab (Fab, V domains shown, also called mAb 334; source: ExpiCHO cells, purified (mAb Select PrismA or Capture Select, SEC)) VH: QVQLVESGGGVVQPGRSLTLSCAASGFTFSNYGMHWVRQTPGKGLAWVAIIWYDGSKTYYEDSVKGRFTISRDNSKNTLYLQMNSLRVDDTAVYYCARVRHSSSRHGSAFDLWGQGTLVTVSS VL: VIQMTQSPSTLSASVGDRVTITCRASQSVSTWLAWYQQKPGQGPKLLIYEASSLESGVPSRFSGSGSGTEFTLTISSLQPDDFATYYCQQYNSYSFWTFGQGTKVEIK : 52000

Next, consider the following binder.
Record 356R Fab (Fab, V domains shown, also called germline-reverted 356; source: ExpiCHO cells, purified (mAb Select PrismA or Capture Select, SEC)) VH: QVQLVESGGGVVQPGRSLRLSCAASGFTFSSYGMHWVRQTPGKGLEWVAVIWHDGSNKFYADSVKGRFTISRDNSKNMIYLQMNSLRVEDTAIYYCARDSLFYDHDNSGYYGYWGQGTLVTVSS VL: EIVMTQSPATVSVSPGERATLSCRASQSVTSKLAWYQQKPGQAPRLLIYGASTRATGIPARFSGSGSGTEFTLTISSLQSEDFAVYFCQQYNNGFTFGPGTKVDFK . Reported kon: 79000
